tested on: K. pneumoniae PCI602; assay: MIC, agar plate dilution method; assay type: cell-based; conditions: Klebsiella pneumoniae, PCI602, 20 h, 37° C., SDA with 5% horse blood, read-out: Antimicrobial activity (MIC)
MIC for assorted compounds

These recorded examples may help you get a feel for the data.
Value lookup for MIC; key = "CO[C@@H]1[C@@H](O[C@@H]2O[C@H](C)[C@@H](O[C@H]3C[C@@](C)(OC)[C@@H](OC(=O)CC(C)C)[C@H](C)O3)[C@H](N(C)C)[C@H]2O)[C@@H](CC=O)C[C@@H](C)[C@@H](O)/C=C/C=C/C[C@@H](C)OC(=O)C[C@H]1O"
> 100 µg/mL

Value lookup for MIC; key = "CO[C@@H]1[C@@H](O[C@@H]2O[C@H](C)[C@@H](O[C@H]3C[C@@](C)(OC)[C@@H](OC(=O)C(C)C)[C@H](C)O3)[C@H](N(C)C)[C@H]2O)[C@@H](CC=O)C[C@@H](C)[C@@H](O)/C=C/C=C/C[C@@H](C)OC(=O)C[C@H]1O"
> 100 µg/mL

Value lookup for MIC; key = CCC(=O)O[C@@H]1CC(=O)O[C@H](C)C/C=C/C=C/[C@H](OC(C)=O)[C@H](C)C[C@H](CC=O)[C@H](O[C@@H]2O[C@H](C)[C@@H](O[C@H]3C[C@@](C)(OC(C)=O)[C@@H](OC(=O)CC)[C@H](C)O3)[C@H](N(C)C)[C@H]2O)[C@H]1OC [MOM, miokamycin, reference compound]
> 100 µg/mL

Value lookup for MIC; key = "CCCCC(=O)O[C@H]1[C@H](C)O[C@@H](O[C@H]2[C@H](N(C)C)[C@@H](O)[C@H](O[C@H]3[C@@H](CC=O)C[C@@H](C)[C@@H](O)/C=C/C=C/C[C@@H](C)OC(=O)C[C@@H](O)[C@@H]3OC)O[C@@H]2C)C[C@@]1(C)OC"
> 100 µg/mL

Value lookup for MIC; key = CC[C@H]1OC(=O)[C@H](C)[C@@H](O[C@H]2C[C@@](C)(OC)[C@@H](O)[C@H](C)O2)[C@H](C)[C@@H](O[C@@H]2O[C@H](C)C[C@H](N(C)C)[C@H]2O)[C@](C)(OC)C[C@@H](C)C(=O)[C@H](C)[C@@H](O)[C@]1(C)O [CAM, clarithromycin, reference compound]
100 µg/mL

Next:
Value lookup for MIC; key = CCC(=O)O[C@@H]1CC(=O)O[C@H](C)C/C=C/C=C/[C@H](O)[C@H](C)C[C@H](CC=O)[C@H](O[C@@H]2O[C@H](C)[C@@H](O[C@H]3C[C@@](C)(O)[C@@H](O)[C@H](C)O3)[C@H](N(C)C)[C@H]2O)[C@H]1OC [MDM-M1, midecamycin M1, reference compound]
> 100 µg/mL

Value lookup for MIC; key = "CCC(=O)O[C@@H]1CC(=O)O[C@H](C)C/C=C/C=C/[C@H](O)[C@H](C)C[C@H](CC=O)[C@H](O[C@@H]2O[C@H](C)[C@@H](O[C@H]3C[C@@](C)(OC)[C@@H](O)[C@H](C)O3)[C@H](N(C)C)[C@H]2O)[C@H]1OC"
> 100 µg/mL

Value lookup for MIC; key = "CCC(=O)O[C@@H]1CC(=O)O[C@H](C)C/C=C/C=C/[C@H](O)[C@H](C)C[C@H](CC=O)[C@H](O[C@@H]2O[C@H](C)[C@@H](O[C@H]3C[C@@](C)(OC)[C@@H](OC(=O)CC)[C@H](C)O3)[C@H](N(C)C)[C@H]2O)[C@H]1OC"
> 100 µg/mL

Value lookup for MIC; key = "CO[C@@H]1[C@@H](O[C@@H]2O[C@H](C)[C@@H](O[C@H]3C[C@@](C)(OC)[C@@H](O)[C@H](C)O3)[C@H](N(C)C)[C@H]2O)[C@@H](CC=O)C[C@@H](C)[C@@H](O)/C=C/C=C/C[C@@H](C)OC(=O)C[C@H]1O"
> 100 µg/mL

Value lookup for MIC; key = "CCC(=O)O[C@H]1[C@H](C)O[C@@H](O[C@H]2[C@H](N(C)C)[C@@H](O)[C@H](O[C@H]3[C@@H](CC=O)C[C@@H](C)[C@@H](O)/C=C/C=C/C[C@@H](C)OC(=O)C[C@@H](O)[C@@H]3OC)O[C@@H]2C)C[C@@]1(C)OC"
> 100 µg/mL

Value lookup for MIC; key = "CCCC(=O)O[C@H]1[C@H](C)O[C@@H](O[C@H]2[C@H](N(C)C)[C@@H](O)[C@H](O[C@H]3[C@@H](CC=O)C[C@@H](C)[C@@H](O)/C=C/C=C/C[C@@H](C)OC(=O)C[C@@H](O)[C@@H]3OC)O[C@@H]2C)C[C@@]1(C)OC"
100 µg/mL

Value lookup for MIC; key = CCCC(=O)O[C@H]1[C@H](C)O[C@@H](O[C@H]2[C@H](N(C)C)[C@@H](O)[C@H](O[C@H]3[C@@H](CC=O)C[C@@H](C)[C@@H](O)/C=C/C=C/C[C@@H](C)OC(=O)C[C@@H](O)[C@@H]3OC)O[C@@H]2C)C[C@@]1(C)OC(=O)CC [RKM, rokitamycin, reference compound]
> 100 µg/mL

Value lookup for MIC; key = CCC(=O)O[C@H]1[C@H](C)O[C@@H](O[C@H]2[C@H](N(C)C)[C@@H](O)[C@H](O[C@H]3[C@@H](CC=O)C[C@@H](C)[C@@H](O)/C=C/C=C/C[C@@H](C)OC(=O)C[C@@H](O)[C@@H]3OC)O[C@@H]2C)C[C@@]1(C)O [LM-A7, leucomycin A7, reference compound]
> 100 µg/mL
